targetEntity: Sodium channel protein type 10 subunit alpha (Homo sapiens, UniProt Q9Y5Y9)
Sequence (Q9Y5Y9 whole entry): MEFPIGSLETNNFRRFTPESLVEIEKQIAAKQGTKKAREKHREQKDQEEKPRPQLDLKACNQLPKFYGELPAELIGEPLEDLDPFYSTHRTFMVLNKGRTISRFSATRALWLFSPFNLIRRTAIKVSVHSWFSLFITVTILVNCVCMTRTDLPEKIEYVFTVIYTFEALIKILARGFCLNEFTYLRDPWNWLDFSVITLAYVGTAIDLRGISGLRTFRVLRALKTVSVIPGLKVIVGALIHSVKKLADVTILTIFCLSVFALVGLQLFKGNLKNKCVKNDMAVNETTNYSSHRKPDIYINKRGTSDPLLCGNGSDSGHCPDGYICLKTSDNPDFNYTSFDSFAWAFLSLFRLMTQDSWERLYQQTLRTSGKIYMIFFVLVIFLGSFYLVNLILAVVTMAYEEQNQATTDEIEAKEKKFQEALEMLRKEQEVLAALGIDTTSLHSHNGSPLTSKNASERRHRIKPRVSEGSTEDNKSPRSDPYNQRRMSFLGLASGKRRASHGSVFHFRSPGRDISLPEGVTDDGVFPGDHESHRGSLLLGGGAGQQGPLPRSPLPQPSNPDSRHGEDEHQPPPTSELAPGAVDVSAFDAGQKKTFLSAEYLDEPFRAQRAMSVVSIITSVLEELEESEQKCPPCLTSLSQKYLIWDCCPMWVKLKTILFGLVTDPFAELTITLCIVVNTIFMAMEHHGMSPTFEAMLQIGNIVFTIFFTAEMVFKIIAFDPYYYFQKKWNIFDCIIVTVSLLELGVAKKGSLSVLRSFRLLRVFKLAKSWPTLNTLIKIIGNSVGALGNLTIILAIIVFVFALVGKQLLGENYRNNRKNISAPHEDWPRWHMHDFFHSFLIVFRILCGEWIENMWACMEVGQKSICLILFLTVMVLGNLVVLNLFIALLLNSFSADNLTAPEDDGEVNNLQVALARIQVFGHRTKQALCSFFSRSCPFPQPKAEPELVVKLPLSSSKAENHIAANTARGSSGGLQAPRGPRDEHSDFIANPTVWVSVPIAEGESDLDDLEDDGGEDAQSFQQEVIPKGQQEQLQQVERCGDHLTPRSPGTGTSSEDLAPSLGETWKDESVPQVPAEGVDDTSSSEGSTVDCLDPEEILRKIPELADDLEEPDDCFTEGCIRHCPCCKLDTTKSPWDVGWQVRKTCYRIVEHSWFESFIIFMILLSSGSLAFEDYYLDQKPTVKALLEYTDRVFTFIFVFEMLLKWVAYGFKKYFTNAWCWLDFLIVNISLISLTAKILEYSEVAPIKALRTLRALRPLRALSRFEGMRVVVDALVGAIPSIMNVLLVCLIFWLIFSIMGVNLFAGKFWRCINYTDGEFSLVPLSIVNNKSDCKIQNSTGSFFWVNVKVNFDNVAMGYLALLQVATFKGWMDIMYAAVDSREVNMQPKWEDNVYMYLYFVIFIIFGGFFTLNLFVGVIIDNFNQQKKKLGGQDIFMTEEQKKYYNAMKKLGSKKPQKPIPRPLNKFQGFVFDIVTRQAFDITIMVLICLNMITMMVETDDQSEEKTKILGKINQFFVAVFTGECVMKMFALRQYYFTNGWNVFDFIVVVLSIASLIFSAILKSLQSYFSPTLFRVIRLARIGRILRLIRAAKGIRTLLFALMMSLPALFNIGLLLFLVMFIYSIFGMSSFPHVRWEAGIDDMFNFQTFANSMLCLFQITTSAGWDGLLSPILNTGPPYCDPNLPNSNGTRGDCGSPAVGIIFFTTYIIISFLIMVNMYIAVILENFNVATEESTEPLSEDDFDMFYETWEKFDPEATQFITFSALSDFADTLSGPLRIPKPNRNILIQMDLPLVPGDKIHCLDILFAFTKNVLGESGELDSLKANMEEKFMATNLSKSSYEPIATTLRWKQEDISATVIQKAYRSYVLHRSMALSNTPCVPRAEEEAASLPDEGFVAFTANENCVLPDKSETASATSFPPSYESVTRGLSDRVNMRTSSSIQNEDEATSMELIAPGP
assayInfo: Inhibition of human Nav1.8 expressed in HEK293 cells by whole cell patch clamp assay
pIC50: −log10 of the molar value.
endpointName: pIC50

>>> numericreadout("NS(=O)(=O)c1cc(NC(=O)c2cc(Cl)cnc2N2CCCC(F)(F)CC2)ccn1")
8.41
